Protocol: Compound was tested for inactivation of sterol methyl transferase (SMT) enzyme in Prototheca wickerhamii
pKi: −log10 of the molar value.
Measure Name: pKi

1. C=C/C(C)=C/CC[C@@H](C)C1CC[C@@]2(C)C3CCC4C(C)(C)C(O)CCC45CC35CCC12C (stereo partly specified) = 4.52
